target: Neuraminidase (Influenza A virus (A/Puerto Rico/8/1934(H1N1)), UniProt P03468)
Sequence (P03468 whole entry): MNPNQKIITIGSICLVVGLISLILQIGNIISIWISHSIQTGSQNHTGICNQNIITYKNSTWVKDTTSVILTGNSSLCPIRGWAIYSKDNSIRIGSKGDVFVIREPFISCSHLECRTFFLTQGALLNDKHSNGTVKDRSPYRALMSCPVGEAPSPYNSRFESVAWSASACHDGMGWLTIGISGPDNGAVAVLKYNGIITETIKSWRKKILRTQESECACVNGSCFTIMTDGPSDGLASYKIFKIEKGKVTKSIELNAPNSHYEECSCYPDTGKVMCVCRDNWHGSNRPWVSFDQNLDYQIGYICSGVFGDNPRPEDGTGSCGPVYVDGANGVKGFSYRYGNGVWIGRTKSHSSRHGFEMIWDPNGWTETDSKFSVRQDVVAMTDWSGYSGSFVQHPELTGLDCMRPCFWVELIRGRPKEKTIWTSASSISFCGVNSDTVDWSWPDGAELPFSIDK
pIC50: −log10 of the molar value.
Label criterion met for high-side pIC50 (at or above 7) and criterion not met for low-side pIC50 (below it).

- line.notation: "CC(=O)N[C@@H]1[C@@H](N)CC(C(=O)O)=C[C@H]1Oc1ccccc1"
  target.or.test.system: "Neuraminidase (Influenza A virus (A/Puerto Rico/8/1934(H1N1)), UniProt P03468)"
  qualitative.label: "criterion not met"
- line.notation: "CCCO[C@@H]1C=C(C(=O)O)C[C@H](N)[C@H]1NS(C)(=O)=O"
  target.or.test.system: "Neuraminidase (Influenza A virus (A/Puerto Rico/8/1934(H1N1)), UniProt P03468)"
  qualitative.label: "criterion not met"
- line.notation: "COCO[C@@H]1C=C(C(=O)O)C[C@H](N)[C@H]1NC(C)=O"
  target.or.test.system: "Neuraminidase (Influenza A virus (A/Puerto Rico/8/1934(H1N1)), UniProt P03468)"
  qualitative.label: "criterion not met"
- line.notation: "CCCO[C@@H]1C=C(C(=O)O)C[C@H](N)[C@H]1NC(=O)CC"
  target.or.test.system: "Neuraminidase (Influenza A virus (A/Puerto Rico/8/1934(H1N1)), UniProt P03468)"
  qualitative.label: "criterion not met"
- line.notation: "CCCO[C@@H]1C=C(C(=O)O)C[C@H](N=C(N)NC)[C@H]1NC(C)=O"
  target.or.test.system: "Neuraminidase (Influenza A virus (A/Puerto Rico/8/1934(H1N1)), UniProt P03468)"
  qualitative.label: "criterion met"
- line.notation: "CCCO[C@@H]1C=C(C(=O)O)C[C@H](N=C(N)N)[C@H]1NC(C)=O"
  target.or.test.system: "Neuraminidase (Influenza A virus (A/Puerto Rico/8/1934(H1N1)), UniProt P03468)"
  qualitative.label: "criterion met"
- line.notation: "CC(=O)N[C@@H]1[C@@H](N)CC(C(=O)O)=C[C@H]1OC1CCCC1"
  target.or.test.system: "Neuraminidase (Influenza A virus (A/Puerto Rico/8/1934(H1N1)), UniProt P03468)"
  qualitative.label: "criterion met"
- line.notation: "CC(=O)N[C@@H]1[C@@H](N)CC(C(=O)O)=C[C@H]1OC1CCCCC1"
  target.or.test.system: "Neuraminidase (Influenza A virus (A/Puerto Rico/8/1934(H1N1)), UniProt P03468)"
  qualitative.label: "criterion met"
- line.notation: "CCCO[C@@H]1C=C(C(=O)O)C[C@H](N)[C@H]1NC(=O)C(F)(F)F"
  target.or.test.system: "Neuraminidase (Influenza A virus (A/Puerto Rico/8/1934(H1N1)), UniProt P03468)"
  qualitative.label: "criterion not met"
- line.notation: "CC(=O)N[C@@H]1[C@@H](N)CC(C(=O)O)=C[C@H]1OCCC(F)(F)F"
  target.or.test.system: "Neuraminidase (Influenza A virus (A/Puerto Rico/8/1934(H1N1)), UniProt P03468)"
  qualitative.label: "criterion not met"
- line.notation: "C=CCO[C@@H]1C=C(C(=O)O)C[C@H](N)[C@H]1NC(C)=O"
  target.or.test.system: "Neuraminidase (Influenza A virus (A/Puerto Rico/8/1934(H1N1)), UniProt P03468)"
  qualitative.label: "criterion not met"
